Where do these numbers come from? They come from patent US20220380368A1.

Assay: Mouse PK studies after oral and IV dosing
Type: in vivo
Conditions: in vivo, po, 3 mg/kg, PO, dose 3 mg/kg, read-out: PO AUC(0 − t)
Protocol: The pharmacokinetics of representative Compounds of the Disclosure were determined after oral and IV dosing at the concentrations indicated in mouse (Table 7). […] The vehicles used in these studies are either (i) 10% PEG400+90% PBS (adjusted to pH to 8.0 by 0.5 N NaOH); or (ii) 100% PEG200.
Label Condition met when AUC(0-t) is strictly below 2000 ng·h/mL; otherwise label Condition not met.

Examples from the recorded data:
[[record]]
compound = "C[C@H]1CC2(CCN(c3ccc(C(=O)N4CCC(N5CCN(c6cc7c(cc6F)C(=O)N(C6CCC(=O)NC6=O)C7=O)CC5)CC4)nn3)CC2)CN1c1ccc(C#N)c(Cl)c1 (stereo partly shown)"
assigned_label = "Condition not met"

[[record]]
compound = "C[C@H]1CC2(CCN(c3ccc(C(=O)N4CCN(C5CN(c6cc7c(cc6F)C(=O)N(C6CCC(=O)NC6=O)C7=O)C5)CC4)cc3)CC2)CN1c1ccc(C#N)c(Cl)c1 (stereo partly shown)"
assigned_label = "Condition not met"

[[record]]
compound = "C[C@H]1CC2(CCN(c3cnc(C(=O)N4CCC(N5CCN(c6cc7c(cc6F)C(=O)N(C6CCC(=O)NC6=O)C7=O)CC5)CC4)cn3)CC2)CN1c1ccc(C#N)c(Cl)c1 (stereo partly shown)"
assigned_label = "Condition met"

[[record]]
compound = "C[C@H]1CC2(CCN(c3cnc(C(=O)N4CCN(CC5CN(c6cc7c(cc6F)C(=O)N(C6CCC(=O)NC6=O)C7=O)C5)CC4)cn3)CC2)CN1c1ccc(C#N)c(Cl)c1 (stereo partly shown)"
assigned_label = "Condition met"

[[record]]
compound = "C[C@H]1CC2(CCN(c3ccc(C(=O)N4CCN(CC5CCN(c6cc7c(cc6F)C(=O)N(C6CCC(=O)NC6=O)C7=O)CC5)CC4)nn3)CC2)CN1c1ccc(C#N)c(Cl)c1 (stereo partly shown)"
assigned_label = "Condition met"

[[record]]
compound = "C[C@H]1CC2(CCN(c3ccc(C(=O)N4CCC(CN5CCN(c6cc7c(cc6F)C(=O)N(C6CCC(=O)NC6=O)C7=O)CC5)CC4)nn3)CC2)CN1c1ccc(C#N)c(Cl)c1 (stereo partly shown)"
assigned_label = "Condition not met"


Q: Confirm or reject: AUC(0-t) of C[C@H]1CC2(CCN(c3ccc(C(=O)N4CCC(N5CCN(c6ccc7c(c6)C(=O)N(C6CCC(=O)NC6=O)C7=O)CC5)CC4)cc3F)CC2)CN1c1ccc(C#N)c(Cl)c1 (stereo partly shown) lies strictly below 2000 ng·h/mL
Result: Condition not met

Q: Bench note: check whether C[C@H]1CC2(CCN(c3cnc(C(=O)N4CCC(CN5CCN(c6ccc7c(c6)C(=O)N(C6CCC(=O)NC6=O)C7=O)CC5)CC4)cn3)CC2)CN1c1ccc(C#N)c(Cl)c1 (stereo partly shown) shows AUC(0-t) below 2000 ng·h/mL
Result: Condition met

Q: API: query returns whether the compound falls strictly under 2000 ng·h/mL in AUC(0-t). Query: C[C@H]1CC2(CCN(c3ccc(C(=O)N4CCN(CC5CCN(c6ccc7c(c6)C(=O)N(C6CCC(=O)NC6=O)C7=O)CC5)CC4)nn3)CC2)CN1c1ccc(C#N)c(Cl)c1 (stereo partly shown)
Result: Condition not met

Q: Answer whether the compound C[C@H]1CC2(CCN(c3ccc(C(=O)N4CCC(CN5CCN(c6ccc7c(c6)C(=O)N(C6CCC(=O)NC6=O)C7=O)CC5)CC4)nn3)CC2)CN1c1ccc(C#N)c(Cl)c1 (stereo partly shown) has AUC(0-t) strictly less than 2000 ng·h/mL
Result: Condition not met

Q: Given C[C@H]1CC2(CCN(c3ccc(C(=O)N4CCN(C5CCN(c6ccc7c(c6)C(=O)N(C6CCC(=O)NC6=O)C7=O)CC5)CC4)cc3)CC2)CN1c1ccc(C#N)c(Cl)c1 (stereo partly shown) , is recorded AUC(0-t) strictly lower than 2000 ng·h/mL?
Result: Condition not met
